Readings of Enzyme Activity Endpoint Assay (purified): IgG for the listed proteins
Biological target: pooled human IgG
Quantity Name: Enzyme Activity Endpoint Assay (purified): IgG

- Protein: "PRT-258 (protein) MVTSVWTKGVTPPTNFTYGEDVLHAPYVANQGWYDITKLFNGKDDLLCGAATAGNMLHWWFDQNKEQIENYLKKHPEKQKINFNGEQMFDVKEAIDTKDSQLDSKLFEYFLEKAFPYLSTKHLGVFPDHVIDMFINGYRLSLTNHGPTPVKRGSKDPRGGIFDAVFTRGDQSKLLTNRHDFKEKTLKEISDLIKQELTEGKALGISHTYANVRINHVINLWGADFDAEGNLEAIAVTDSDSNASIGMKKYFVGVNSSGKVAISAKEIEEDNIGAQVLGLFTLSTGQDIWNQTN"
  Endpoint Value: "0 ng/µL"
- Protein: "PRT-114 (protein) MRNATEAYNEETPHQITSVWTKGVTPPTPEQFRYNNEDVIHAPYLANQGWYDITKTFNGKDNLLCGAATAGNMLHWWFDQNKTEIEAYLSKHPEKQKIIFNNQELFDLKAAIDTKDSQTNSQLFNYFREKAFPNLSARQLGVMPDLVLDMFINGYYLNVTKTQSTDVNRPYQDKDKRGGIFDAVFTRGDQTKLLTARHDLKNKTLNEISTLIKQELTEGRALALSHTYANVSISHVINLWGADFNAEGNLEAIYVTDSDANASIGMKKYFVGVNAAGHVAISAKKIEGENIGAQVLGLFTLSSGKDIWQKLS"
  Endpoint Value: "129 ng/µL"
- Protein: "PRT-241 (protein) MVTSVWTKGVTPPANFTQGEDVFHAPYVANQGWYDITKTFNGKDDLLCGAATAGNMLHWWFDQNKDQIKRYLEEHPEKQKINFNGEQMFDVKEAIDTKNHQLDSKLFEYFKEKAFPNLSTKHLGVFPDHVIDMFINGYRLSLLNHGPTPVKEGSKDPRGGIFDAVFTRGDQSKLLTSRHDFKEKNLKEISDLIKKELTEGKALGLSHTYANVRINHVINLWGADFDSNGNLKAIYVTDSDSNASIGMKKYFVGVNSSGKVAISAKEIKEDNIGAQVLGLFTLSTGQDSWNQTN"
  Endpoint Value: "0 ng/µL"
- Protein: "PRT-607 (protein) MQITSVWTYGVKPLTPEQFRYNNEDVIHAPYLEHQGWYDITKAFDGKDNLLCGAATAGNMLHWWFDQNKTEIEAYLSKHPEKQKIIFNNQELFDLKAAIDTKDSQTNSQLFNYFRDKAFPNLSARQLGVMPDLVLDMFINGYYLNVFKTQSTDVNRPYQDKDKRGGIFDAVFTRGDQTTLLTARHDLKNKGLNDISTIIKQELTEGRALALSHTYANVSISHVINLWGADFNAEGNLEAIYVTDSDANASIGMKKYFVGINAHGHVAISAKKIEGENIGAQVLGLFTLSSGKDIWQKLSLEHHHHHH"
  Endpoint Value: "0 ng/µL"

Data provenance: patent US20250027068
